- target: recombinant human Mcl-1 (residues 171-327) / Bim interaction (Homo sapiens (Human), UniProt Q07820)
- Sequence (Q07820 171-327): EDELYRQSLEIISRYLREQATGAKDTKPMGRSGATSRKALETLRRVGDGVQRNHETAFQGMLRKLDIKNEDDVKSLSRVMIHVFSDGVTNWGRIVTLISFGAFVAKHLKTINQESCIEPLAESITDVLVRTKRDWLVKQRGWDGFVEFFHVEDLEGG
- measurement-notes: biochemical
- Format: binding
- measurement-conditions: read-out: Mcl-1 HTRF IC50
# key: entry, value: pIC50
// pIC50 here means minus log10 of the molar concentration (mol/L)

{"molecule": "CCC[C@]1(O)/C=C/C[C@H](C)[C@@H](C)S(=O)(=O)NC(=O)c2ccc3c(c2)N(C[C@@H]2CC[C@H]21)C[C@@]1(CCCc2cc(Cl)ccc21)CO3", "pIC50": 9.82}
{"molecule": "C[C@@H]1[C@@H](C)CCC[C@@](O)(COS(C)(=O)=O)[C@@H]2CC[C@H]2CN2C[C@@]3(CCCc4cc(Cl)ccc43)COc3ccc(cc32)C(=O)NS1(=O)=O [Example 100271]", "pIC50": 8.61}

[ask] pIC50 for C[C@@H]1[C@@H](C)C/C=C/[C@@](O)(CC(=O)N2CCOCC2)[C@@H]2CC[C@H]2CN2C[C@@]3(CCCc4cc(Cl)ccc43)COc3ccc(cc32)C(=O)NS1(=O)=O ?
[reply] 9.61

[ask] Given the entry CO[C@]1(C)/C=C/C[C@H](C)[C@@H](C)S(=O)(=O)NC(=O)c2ccc3c(c2)N(C[C@@H]2CC[C@H]21)C[C@@]1(CCCc2cc(Cl)ccc21)CO3 , report its measured pIC50.
[reply] 9.23

[ask] // query pIC50 value for entry C[C@@H]1[C@@H](C)C/C=C/[C@](O)(Cc2nccs2)[C@@H]2CC[C@H]2CN2C[C@@]3(CCCc4cc(Cl)ccc43)COc3ccc(cc32)C(=O)NS1(=O)=O [Example 100245]
[reply] 8.77
